test: tissue concentrations after intraperitoneal injection into a live rat; assay type: in vivo; conditions: spleen, ip, 6 mg i.p., 60 min, read-out: Concentration of compound 188 in tissue samples (μM) spleen
measured metric: concentration at 60 min (µM)
Please reply with the bare figure in µM and do not write the unit itself.

Query: I'd like to know its concentration at 60 min. The molecule in question is O=C1c2ccsc2N=C2N(c3ccc(N4CCOCC4)cc3)CCC12O (stereo not shown)
Reply: 3

----------
Could you please report measured % inhibition. complete Dicty for the items listed next?
biological target: recombinant Dictyostelium miozin (Dictyostelium) (Dictyostelium discoideum, UniProt P08799); test: actomyosin steady state ATPase measurement, Dictyostelium myosin; format: biochemical; conditions: maximum value of inhibition of ATPase activity
Sequence (P08799 whole entry): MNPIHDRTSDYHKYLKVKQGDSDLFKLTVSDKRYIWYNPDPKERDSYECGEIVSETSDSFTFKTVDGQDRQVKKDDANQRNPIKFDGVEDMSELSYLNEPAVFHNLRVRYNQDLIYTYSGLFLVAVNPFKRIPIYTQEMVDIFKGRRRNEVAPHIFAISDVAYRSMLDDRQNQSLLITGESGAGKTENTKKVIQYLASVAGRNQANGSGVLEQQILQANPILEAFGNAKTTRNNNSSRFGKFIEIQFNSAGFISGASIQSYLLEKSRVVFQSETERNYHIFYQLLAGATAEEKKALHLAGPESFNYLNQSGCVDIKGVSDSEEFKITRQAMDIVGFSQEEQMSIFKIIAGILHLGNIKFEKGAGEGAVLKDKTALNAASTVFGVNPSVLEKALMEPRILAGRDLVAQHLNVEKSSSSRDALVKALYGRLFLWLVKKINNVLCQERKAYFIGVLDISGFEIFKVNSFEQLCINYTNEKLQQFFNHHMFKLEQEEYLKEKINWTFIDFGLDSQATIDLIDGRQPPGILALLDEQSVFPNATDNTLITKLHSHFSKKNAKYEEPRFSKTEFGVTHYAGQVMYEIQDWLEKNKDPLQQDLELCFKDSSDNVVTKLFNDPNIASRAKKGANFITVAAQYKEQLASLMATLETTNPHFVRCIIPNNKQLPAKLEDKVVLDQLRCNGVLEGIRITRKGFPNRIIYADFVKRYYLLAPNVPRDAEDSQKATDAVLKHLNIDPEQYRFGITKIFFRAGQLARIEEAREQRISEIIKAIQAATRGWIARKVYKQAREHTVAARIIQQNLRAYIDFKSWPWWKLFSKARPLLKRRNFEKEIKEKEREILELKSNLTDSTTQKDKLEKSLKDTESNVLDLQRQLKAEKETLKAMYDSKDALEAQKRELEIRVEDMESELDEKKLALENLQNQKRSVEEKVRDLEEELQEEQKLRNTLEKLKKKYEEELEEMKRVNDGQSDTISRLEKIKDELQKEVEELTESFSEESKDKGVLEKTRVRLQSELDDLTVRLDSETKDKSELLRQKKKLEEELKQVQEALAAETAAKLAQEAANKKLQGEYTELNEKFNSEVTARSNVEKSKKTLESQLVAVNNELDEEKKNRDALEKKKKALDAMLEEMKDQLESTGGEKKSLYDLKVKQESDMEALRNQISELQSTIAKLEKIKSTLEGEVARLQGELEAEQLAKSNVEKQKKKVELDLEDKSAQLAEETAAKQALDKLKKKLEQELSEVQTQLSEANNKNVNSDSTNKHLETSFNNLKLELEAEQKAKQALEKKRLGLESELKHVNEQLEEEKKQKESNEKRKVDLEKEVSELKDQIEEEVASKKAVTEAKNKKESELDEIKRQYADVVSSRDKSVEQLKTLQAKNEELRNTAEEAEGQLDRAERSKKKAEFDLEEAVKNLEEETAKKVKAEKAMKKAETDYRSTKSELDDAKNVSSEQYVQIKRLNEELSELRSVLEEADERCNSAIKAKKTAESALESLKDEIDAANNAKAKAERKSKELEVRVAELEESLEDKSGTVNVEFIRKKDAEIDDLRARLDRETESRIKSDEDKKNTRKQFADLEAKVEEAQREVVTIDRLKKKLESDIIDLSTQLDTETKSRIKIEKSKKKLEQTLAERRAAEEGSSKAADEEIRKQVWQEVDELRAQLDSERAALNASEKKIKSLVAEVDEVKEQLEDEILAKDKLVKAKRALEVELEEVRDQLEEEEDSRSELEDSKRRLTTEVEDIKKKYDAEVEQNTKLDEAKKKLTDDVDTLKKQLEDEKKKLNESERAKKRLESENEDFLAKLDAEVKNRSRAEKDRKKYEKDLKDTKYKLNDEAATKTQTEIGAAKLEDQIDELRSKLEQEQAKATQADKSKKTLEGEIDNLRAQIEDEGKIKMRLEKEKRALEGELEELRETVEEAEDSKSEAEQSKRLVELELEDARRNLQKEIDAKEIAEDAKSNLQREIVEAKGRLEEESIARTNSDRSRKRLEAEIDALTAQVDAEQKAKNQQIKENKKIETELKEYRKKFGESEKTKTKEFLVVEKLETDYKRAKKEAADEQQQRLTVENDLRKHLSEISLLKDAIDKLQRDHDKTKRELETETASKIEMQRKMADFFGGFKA
Please reply with the bare figure in % and do not write the unit itself.

Query: I'd like to know its % inhibition. complete Dicty. The compound in question is O=C1c2ccncc2N=C2NCCC12O (centres unmarked)
Reply: 33

Query: I'd like to know its % inhibition. complete Dicty. The compound in question is N#CCc1ccc(N2CC[C@@]3(O)C(=O)c4ccsc4N=C23)cc1
Reply: 78

Query: I'd like to know its % inhibition. complete Dicty. The compound in question is O=C1c2ccsc2N=C2N(c3ccccc3)CCC12O (centres unmarked)
Reply: 85

Query: I'd like to know its % inhibition. complete Dicty. The compound in question is Cc1ccc(N2CCC3(O)C(=O)c4cc(C)sc4N=C23)cc1 (centres unmarked)
Reply: 46

Query: I'd like to know its % inhibition. complete Dicty. The compound in question is Cc1cc2c(s1)N=C1N(c3ccc(CC#N)cc3)CCC1(O)C2=O (centres unmarked)
Reply: 92

Query: I'd like to know its % inhibition. complete Dicty. The compound in question is O=C1c2ccncc2N=C2N(c3ccccc3)CCC12O (centres unmarked)
Reply: 20

Query: I'd like to know its % inhibition. complete Dicty. The compound in question is Cc1cc2c(s1)N=C1N(c3ccc(C#N)cc3)CCC1(O)C2=O (centres unmarked)
Reply: 89

Query: I'd like to know its % inhibition. complete Dicty. The compound in question is COc1ccc(N2CC[C@@]3(O)C(=O)c4ccsc4N=C23)cc1
Reply: 100

Query: I'd like to know its % inhibition. complete Dicty. The compound in question is Cc1ccc(N2CC[C@@]3(O)C(=O)c4ccsc4N=C23)cc1
Reply: 100

Query: I'd like to know its % inhibition. complete Dicty. The compound in question is CN(C)c1ccc(N2CC[C@@]3(O)C(=O)c4ccsc4N=C23)cc1
Reply: 47

Query: I'd like to know its % inhibition. complete Dicty. The compound in question is COc1ccc(N2CCC3(O)C(=O)c4cc(C)sc4N=C23)cc1 (centres unmarked)
Reply: 100

Query: I'd like to know its % inhibition. complete Dicty. The compound in question is Cc1cc2c(s1)N=C1N(c3ccc(OC(F)(F)F)cc3)CCC1(O)C2=O (centres unmarked)
Reply: 100

Query: I'd like to know its % inhibition. complete Dicty. The compound in question is O=C1c2ccsc2N=C2N(c3ccc(N4CCOCC4)cc3)CCC12O (centres unmarked)
Reply: 19

Query: I'd like to know its % inhibition. complete Dicty. The compound in question is N#Cc1ccc(N2CC[C@@]3(O)C(=O)c4ccsc4N=C23)cc1
Reply: 87

Query: I'd like to know its % inhibition. complete Dicty. The compound in question is COc1ccc(N2CC[C@@]3(O)C(=O)c4ccsc4N=C23)cn1
Reply: 100

Query: I'd like to know its % inhibition. complete Dicty. The compound in question is Cc1ccc(N2CCC3(O)C(=O)c4ccncc4N=C23)cc1 (centres unmarked)
Reply: 54

Query: I'd like to know its % inhibition. complete Dicty. The compound in question is Cc1cc2c(s1)N=C1N(c3ccc(CO)cc3)CCC1(O)C2=O (centres unmarked)
Reply: 100

Query: I'd like to know its % inhibition. complete Dicty. The compound in question is CC(=O)c1ccc(N2CCC3(O)C(=O)c4cc(C)sc4N=C23)cc1 (centres unmarked)
Reply: 100

Query: I'd like to know its % inhibition. complete Dicty. The compound in question is COc1ccc(N2CCC3(O)C(=O)c4cc(C)sc4N=C23)cn1 (centres unmarked)
Reply: 100

Query: I'd like to know its % inhibition. complete Dicty. The compound in question is O=C1c2sccc2N=C2N(c3ccccc3)CCC12O (centres unmarked)
Reply: 100

Query: I'd like to know its % inhibition. complete Dicty. The compound in question is O=C1c2ccsc2N=C2N(c3ccc(CO)cc3)CC[C@@]12O
Reply: 74

Query: I'd like to know its % inhibition. complete Dicty. The compound in question is O=C1c2ccncc2N=C2N(c3ccc(OC(F)(F)F)cc3)CCC12O (centres unmarked)
Reply: 41

Query: I'd like to know its % inhibition. complete Dicty. The compound in question is CC(=O)c1ccc(N2CC[C@@]3(O)C(=O)c4ccsc4N=C23)cc1
Reply: 100

Query: I'd like to know its % inhibition. complete Dicty. The compound in question is O=C1c2ccsc2N=C2N(c3ccc(OC(F)(F)F)cc3)CC[C@@]12O
Reply: 84

Query: I'd like to know its % inhibition. complete Dicty. The compound in question is Cc1cc2c(s1)N=C1N(c3ccccc3)CCC1(O)C2=O (centres unmarked)
Reply: 100

Query: I'd like to know its % inhibition. complete Dicty. The compound in question is Cc1cc2c(s1)N=C1N(c3cccs3)CC[C@@]1(O)C2=O
Reply: 95

Query: I'd like to know its % inhibition. complete Dicty. The compound in question is Cc1cc2c(s1)N=C1N(c3ccc(N)cc3)CCC1(O)C2=O (centres unmarked)
Reply: 100

Query: I'd like to know its % inhibition. complete Dicty. The compound in question is Nc1ccc(N2CC[C@@]3(O)C(=O)c4ccsc4N=C23)cc1
Reply: 100

Query: I'd like to know its % inhibition. complete Dicty. The compound in question is O=C1c2ccsc2N=C2N(c3cccs3)CC[C@@]12O
Reply: 100

Query: I'd like to know its % inhibition. complete Dicty. The compound in question is Cc1cc2c(s1)N=C1N(c3ccc(N(C)C)cc3)CCC1(O)C2=O (centres unmarked)
Reply: 68

Query: I'd like to know its % inhibition. complete Dicty. The compound in question is O=C1c2ccncc2N=C2N(c3ccc(N4CCOCC4)cc3)CCC12O (centres unmarked)
Reply: 100

Query: I'd like to know its % inhibition. complete Dicty. The compound in question is Cc1cc2c(s1)N=C1N(c3cccs3)CCC1(O)C2=O (centres unmarked)
Reply: 97
